// data source = the supplement of paper PMC7556523

test system: Sporothrix brasiliensis CBS 133006; assay: growth inhibition relative to untreated control; higher = more growth inhibition (more antifungal activity), active = 80 or more; extreme values may be limits of the assay; conditions: 1 µM; 48 h
Response field class: string, computed from recorded growth inhibition by ranges lower band (below 6%), central band (6% to below 10%), upper band (10% or more)

See these solved cases before continuing.
| molecule | systemName | answerLabel |
| --- | --- | --- |
| NC(=O)c1cc(Br)ccc1OCCOc1ccccc1 | Sporothrix brasiliensis CBS 133006 | upper band |
| O=C(Nc1nnc(S)s1)c1cc(Br)ccc1Cl | Sporothrix brasiliensis CBS 133006 | central band |
| CNc1cc(C)nc(C2CN(C(=O)c3n[nH]c4ccccc34)CCO2)c1 (stereo not drawn) | Sporothrix brasiliensis CBS 133006 | lower band |
| NC(CC(=O)c1ccc(Cl)cc1Cl)C(Cl)(Cl)Cl (stereo not drawn) | Sporothrix brasiliensis CBS 133006 | central band |
| CNC(=O)CNc1nc(-c2ccccn2)nc2scc(-c3ccccc3)c12 | Sporothrix brasiliensis CBS 133006 | central band |
| O=C(NC1CC1)c1ccc(N2CCOc3ccc(Cl)cc32)s1 | Sporothrix brasiliensis CBS 133006 | central band |
| Nc1ncnc2c1c(-c1cnc3ccccc3c1)nn2CC1CCNCC1 | Sporothrix brasiliensis CBS 133006 | upper band |
| Cc1ccc2c(c1C)NC(=O)C21NN=C(c2ccccc2)S1 (stereo not drawn) | Sporothrix brasiliensis CBS 133006 | central band |

Input line: # bin lookup: classify CS(=O)(=O)N1CCC(CCn2nc(Cc3cccc4ccccc34)c3c(N)ncnc32)CC1 by its growth inhibition
Output line: lower band

Input line: # bin lookup: classify COC(=O)c1ccc(F)cc1NS(=O)(=O)c1cccc(-c2cnn(Cc3ccccc3)c2)c1 by its growth inhibition
Output line: upper band

Input line: # bin lookup: classify COc1ccc(Oc2ccc([C@@H](C)N(C)c3ncc4c(N)nc(N)nc4n3)cc2)cc1 by its growth inhibition
Output line: lower band

Input line: # bin lookup: classify Cc1cc(Cl)c(S(=O)(=O)N2CCCC2)cc1OCC(=O)NC1CCCCC1 by its growth inhibition
Output line: central band
